Target: T1, human DLL3 on SHP-77 cells (human, UniProt Q9NYJ7 27-618)
T1 construct: also called DLL3-expressing cells (SHP-77)
T1 sequence: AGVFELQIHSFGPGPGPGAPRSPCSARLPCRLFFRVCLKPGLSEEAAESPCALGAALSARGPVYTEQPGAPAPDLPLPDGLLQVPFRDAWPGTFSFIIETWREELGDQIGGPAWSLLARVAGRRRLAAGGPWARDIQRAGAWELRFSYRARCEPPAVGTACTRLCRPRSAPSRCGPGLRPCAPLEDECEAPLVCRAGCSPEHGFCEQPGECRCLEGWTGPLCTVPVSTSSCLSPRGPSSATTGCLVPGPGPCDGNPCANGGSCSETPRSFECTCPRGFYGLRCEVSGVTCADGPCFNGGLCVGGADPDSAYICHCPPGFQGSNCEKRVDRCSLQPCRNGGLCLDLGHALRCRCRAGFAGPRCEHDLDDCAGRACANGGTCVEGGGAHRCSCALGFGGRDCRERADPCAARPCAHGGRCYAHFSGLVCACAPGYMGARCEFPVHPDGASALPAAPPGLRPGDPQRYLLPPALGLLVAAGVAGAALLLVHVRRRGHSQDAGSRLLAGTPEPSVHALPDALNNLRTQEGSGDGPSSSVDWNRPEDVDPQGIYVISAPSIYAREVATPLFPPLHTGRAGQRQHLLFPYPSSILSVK
Experiment: flow cytometry, SHP-77 cells
measure_name: Top MFI (MFI)
Your answer is read as MFI, so omit the unit and give the number.

INSERT INTO measurements (binder, value_units, quantitative_result) VALUES
  ('H1-39E2D11 mouse hybridoma-derived humanized anti-DLL3 antibody (antibody, V domains shown) VH: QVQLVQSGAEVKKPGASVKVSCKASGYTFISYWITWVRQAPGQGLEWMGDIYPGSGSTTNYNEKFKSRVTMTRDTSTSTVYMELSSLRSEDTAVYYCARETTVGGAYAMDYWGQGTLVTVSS VL: EIVLTQSPATLSLSPGERATLSCRASQSINNNLHWYQQKPGQAPRLLIYYVSQSISGIPARFSGSGSGTDFTLTISSLEPEDFAVYYCQQTNSWPLTFGGGTKLEIK', 'MFI', 1430);

Incoming: So what does the record say about Top MFI for 39E2D11-1 mouse hybridoma-derived anti-DLL3 chimeric antibody (antibody, V domains shown) VH: QVQLQQSGAELVKPGASVKMSCKASGYTFISYWITWVKQRPGQGLEWIGDIYPGSGSTTNYNEKFKSKATLTVDTSSSTAYMQLSSLTSEDSAVYYCARETTVGGAYAMDYWGQGTSVTVSS VL: DIVLTQSPATLSVTPGDSVSLSCRASQSINNNLHWYQQKSHESPRLLIKYVSQSISGIPSRFSGSGSGTDFTLTINSVETEDFGMYFCQQTNSWPLTFGAGTKLELK ?
Outgoing: 1650

Incoming: // query Top MFI value for entry 46A5A4 mouse hybridoma-derived anti-DLL3 chimeric antibody (antibody, V domains shown) VH: QVQLQQSDAELVKPGASVKISCKVSGYTFTDHTIHWMKQRPEQGLEWIGYIYPRDGYTMYNEKFKGKATLTADKSSSTAYMQLNSLTSEDSAVHFCARAFHALDYWGQGTSVTVSS VL: DIQMTQTTSSLSASLGDRVTFTCSASQGISNYLNWYQQKPDGTIKLLIYYTSSLHSGVPSRFSGSGSGTDYSLTISNLEPEDIATYYCQQYSKLPYTFGGGTKLEIK
Outgoing: 1570
